Cited source: ChEMBL document CHEMBL1770123

Test system: A549
Experiment: Cytotoxicity against human A549 cells assessed as cell death at 25 ug after 48 hrs by MTT assay
Assay type: functional
Binary classification by Activity, with 70% as an inclusive lower bound for yes; all other cases are no.

- CC(C)CC(=O)O[C@H](c1ccccc1)c1cc(O)cc(=O)[nH]1: yes
- CC(C)CC(=O)O[C@@H](c1ccccc1)c1cc(O)cc(=O)[nH]1: no
- CC(C)CC(=O)O[C@H](c1ccccc1)c1cc(O)c(C(=O)O)c(=O)[nH]1: yes
- CC(C)CC(=O)OC(c1ccccc1)c1cc(O)c(C(=O)O)c(=O)[nH]1 (racemic): yes
- CC(C)CC(=O)O[C@@H](c1ccccc1)c1cc(O)c(C(=O)O)c(=O)[nH]1: yes
- CC(C)CC(=O)OC(c1ccccc1)c1cc(O)cc(=O)[nH]1 (racemic): yes
